Test system: UO-31
Protocol Notes: NCI tumour cell line growth inhibition, 48 h
Active and inactive are the calls of the source. No stated cut-off is given here; in the data, active = GI50 up to about 1.1 µM and inactive = higher.
Attribute Measured: GI50

O=C1Cc2c([nH]c3c(Br)cccc23)-c2ccccc2N1	37.9 µM (inactive)
CCCCCCCCCCCCCCCCP(=O)(O)OCC(N)C(=O)O (centres undefined)	16 µM (inactive)
[N-]=[N+]=Nc1c([N+](=O)[O-])c(=O)n2c3c(cccc13)CCC2	15.2 µM (inactive)

Please turn your attention to the following entry.
Incoming: Consider the compound shown here: `CSc1c(C(=O)Nc2ccc(Cl)cc2)c(N)nn1-c1ccccc1` What is its recorded GI50?
Outgoing: > 44.8 µM (inactive)
